FYI, the data here is from patent US11440903B2.

# protocol details: Solid stability test of the crystal forms (influence factors and acceleration tests; appearance, XRPD, HPLC content and impurities)
# Format: physicochemical
# experimental parameters: Acceleration test (40° C./relative humidity of 75%, open), 10 days
assay readout: Total Impurities (%)

Recorded results for 3 compounds are shown here.
compound	result value
C=CC(=O)N[C@H]1COC[C@H]1Nc1ncc(/C=C(\F)c2c(Cl)c(OC)cc(OC)c2Cl)cn1.CS(=O)(=O)O [Crystal Form E]	0.35
C=CC(=O)N[C@H]1COC[C@H]1Nc1ncc(/C=C(\F)c2c(Cl)c(OC)cc(OC)c2Cl)cn1 [Crystal Form C]	1.26
C=CC(=O)N[C@H]1COC[C@H]1Nc1ncc(/C=C(\F)c2c(Cl)c(OC)cc(OC)c2Cl)cn1 [Crystal Form D]	0.96

(1) C=CC(=O)N[C@H]1COC[C@H]1Nc1ncc(/C=C(\F)c2c(Cl)c(OC)cc(OC)c2Cl)cn1 [Crystal Form B]
(2) C=CC(=O)N[C@H]1COC[C@H]1Nc1ncc(/C=C(\F)c2c(Cl)c(OC)cc(OC)c2Cl)cn1.CS(=O)(=O)O [Crystal Form F]
(3) C=CC(=O)N[C@H]1COC[C@H]1Nc1ncc(/C=C(\F)c2c(Cl)c(OC)cc(OC)c2Cl)cn1 [Crystal Form A]
Arrange items by their Total Impurities (%) values in increasing order. Returns: the labels arranged in the requested order.
1, 2, 3
(1: 0.43%, 2: 0.71%, 3: 1.18%)

====

# protocol details: Solid stability test of the crystal forms (influence factors and acceleration tests; appearance, XRPD, HPLC content and impurities)
# Assay type: physicochemical
# experimental parameters: Acceleration test (40° C./relative humidity of 75%, open), 5 days
assay readout: Appearance

molecule	assay readout	result value
C=CC(=O)N[C@H]1COC[C@H]1Nc1ncc(/C=C(\F)c2c(Cl)c(OC)cc(OC)c2Cl)cn1 [Crystal Form C]	Appearance	Off-white
C=CC(=O)N[C@H]1COC[C@H]1Nc1ncc(/C=C(\F)c2c(Cl)c(OC)cc(OC)c2Cl)cn1 [Crystal Form A]	Appearance	Off-white
C=CC(=O)N[C@H]1COC[C@H]1Nc1ncc(/C=C(\F)c2c(Cl)c(OC)cc(OC)c2Cl)cn1.CS(=O)(=O)O [Crystal Form F]	Appearance	White
C=CC(=O)N[C@H]1COC[C@H]1Nc1ncc(/C=C(\F)c2c(Cl)c(OC)cc(OC)c2Cl)cn1 [Crystal Form D]	Appearance	Off-white

====

# protocol details: Solid stability test of the crystal forms (influence factors and acceleration tests; appearance, XRPD, HPLC content and impurities)
# Format: physicochemical
# experimental parameters: High temperature (60° C., open), 5 days
assay readout: Appearance

molecule	Appearance
C=CC(=O)N[C@H]1COC[C@H]1Nc1ncc(/C=C(\F)c2c(Cl)c(OC)cc(OC)c2Cl)cn1.CS(=O)(=O)O [Crystal Form F]	White
C=CC(=O)N[C@H]1COC[C@H]1Nc1ncc(/C=C(\F)c2c(Cl)c(OC)cc(OC)c2Cl)cn1 [Crystal Form C]	Off-white
C=CC(=O)N[C@H]1COC[C@H]1Nc1ncc(/C=C(\F)c2c(Cl)c(OC)cc(OC)c2Cl)cn1 [Crystal Form A]	Off-white
C=CC(=O)N[C@H]1COC[C@H]1Nc1ncc(/C=C(\F)c2c(Cl)c(OC)cc(OC)c2Cl)cn1 [Crystal Form B]	Off-white
C=CC(=O)N[C@H]1COC[C@H]1Nc1ncc(/C=C(\F)c2c(Cl)c(OC)cc(OC)c2Cl)cn1 [Crystal Form D]	Off-white

// below: Appearance requested for another molecule
// recorded Appearance for C=CC(=O)N[C@H]1COC[C@H]1Nc1ncc(/C=C(\F)c2c(Cl)c(OC)cc(OC)c2Cl)cn1.CS(=O)(=O)O [Crystal Form E] : White

====

# protocol details: Solid stability test of the crystal forms (influence factors and acceleration tests; appearance, XRPD, HPLC content and impurities)
# Assay type: physicochemical
# experimental parameters: Acceleration test (40° C./relative humidity of 75%, open), 10 days
assay readout: Appearance

// worked examples, Appearance included
compound	Appearance
C=CC(=O)N[C@H]1COC[C@H]1Nc1ncc(/C=C(\F)c2c(Cl)c(OC)cc(OC)c2Cl)cn1.CS(=O)(=O)O [Crystal Form F]	White
C=CC(=O)N[C@H]1COC[C@H]1Nc1ncc(/C=C(\F)c2c(Cl)c(OC)cc(OC)c2Cl)cn1 [Crystal Form B]	Off-white
C=CC(=O)N[C@H]1COC[C@H]1Nc1ncc(/C=C(\F)c2c(Cl)c(OC)cc(OC)c2Cl)cn1.CS(=O)(=O)O [Crystal Form E]	White
C=CC(=O)N[C@H]1COC[C@H]1Nc1ncc(/C=C(\F)c2c(Cl)c(OC)cc(OC)c2Cl)cn1 [Crystal Form A]	Off-white
C=CC(=O)N[C@H]1COC[C@H]1Nc1ncc(/C=C(\F)c2c(Cl)c(OC)cc(OC)c2Cl)cn1 [Crystal Form D]	Off-white

Please look at the following compound next.
The recorded Appearance for entry C=CC(=O)N[C@H]1COC[C@H]1Nc1ncc(/C=C(\F)c2c(Cl)c(OC)cc(OC)c2Cl)cn1 [Crystal Form C] equals Off-white

====

# protocol details: Solid stability test of the crystal forms (influence factors and acceleration tests; appearance, XRPD, HPLC content and impurities)
# Format: physicochemical
# experimental parameters: 0 day (initial)
assay readout: Content (%)

compound	unit abbreviation	Content (%)
C=CC(=O)N[C@H]1COC[C@H]1Nc1ncc(/C=C(\F)c2c(Cl)c(OC)cc(OC)c2Cl)cn1 [Crystal Form B]	%	99.21
C=CC(=O)N[C@H]1COC[C@H]1Nc1ncc(/C=C(\F)c2c(Cl)c(OC)cc(OC)c2Cl)cn1.CS(=O)(=O)O [Crystal Form E]	%	101.51
C=CC(=O)N[C@H]1COC[C@H]1Nc1ncc(/C=C(\F)c2c(Cl)c(OC)cc(OC)c2Cl)cn1 [Crystal Form A]	%	99.11
C=CC(=O)N[C@H]1COC[C@H]1Nc1ncc(/C=C(\F)c2c(Cl)c(OC)cc(OC)c2Cl)cn1 [Crystal Form D]	%	99.33
C=CC(=O)N[C@H]1COC[C@H]1Nc1ncc(/C=C(\F)c2c(Cl)c(OC)cc(OC)c2Cl)cn1 [Crystal Form C]	%	98.96
C=CC(=O)N[C@H]1COC[C@H]1Nc1ncc(/C=C(\F)c2c(Cl)c(OC)cc(OC)c2Cl)cn1.CS(=O)(=O)O [Crystal Form F]	%	99.26

====

# protocol details: Solid stability test of the crystal forms (influence factors and acceleration tests; appearance, XRPD, HPLC content and impurities)
# Type: physicochemical
# experimental parameters: Light radiation (total illumination: 1.2 × 10^6 Lux·hr), 10 days
assay readout: Appearance

compound	assay readout	result value
C=CC(=O)N[C@H]1COC[C@H]1Nc1ncc(/C=C(\F)c2c(Cl)c(OC)cc(OC)c2Cl)cn1 [Crystal Form A]	Appearance	Off-white
C=CC(=O)N[C@H]1COC[C@H]1Nc1ncc(/C=C(\F)c2c(Cl)c(OC)cc(OC)c2Cl)cn1 [Crystal Form D]	Appearance	Off-white
C=CC(=O)N[C@H]1COC[C@H]1Nc1ncc(/C=C(\F)c2c(Cl)c(OC)cc(OC)c2Cl)cn1 [Crystal Form C]	Appearance	Off-white
C=CC(=O)N[C@H]1COC[C@H]1Nc1ncc(/C=C(\F)c2c(Cl)c(OC)cc(OC)c2Cl)cn1.CS(=O)(=O)O [Crystal Form F]	Appearance	White

====

# protocol details: Solid stability test of the crystal forms (influence factors and acceleration tests; appearance, XRPD, HPLC content and impurities)
# Type: physicochemical
# experimental parameters: High humidity (room temperature/relative humidity of 92.5%, open), 10 days
# From the text: A sample of the crystal form A was placed on the bottom of a glass sample bottle, and spread to a thin layer. […] Samples were taken and analyzed at various time points, and the test results were compared with the initial test results of 0 day, the inspection items included appearance, content and impurities, and the test results are shown in Table 9. […]
assay readout: Appearance

Examples with their reported Appearance follow.
compound	Appearance
C=CC(=O)N[C@H]1COC[C@H]1Nc1ncc(/C=C(\F)c2c(Cl)c(OC)cc(OC)c2Cl)cn1.CS(=O)(=O)O [Crystal Form F]	White
C=CC(=O)N[C@H]1COC[C@H]1Nc1ncc(/C=C(\F)c2c(Cl)c(OC)cc(OC)c2Cl)cn1 [Crystal Form D]	Off-white
C=CC(=O)N[C@H]1COC[C@H]1Nc1ncc(/C=C(\F)c2c(Cl)c(OC)cc(OC)c2Cl)cn1.CS(=O)(=O)O [Crystal Form E]	White
C=CC(=O)N[C@H]1COC[C@H]1Nc1ncc(/C=C(\F)c2c(Cl)c(OC)cc(OC)c2Cl)cn1 [Crystal Form B]	Off-white
C=CC(=O)N[C@H]1COC[C@H]1Nc1ncc(/C=C(\F)c2c(Cl)c(OC)cc(OC)c2Cl)cn1 [Crystal Form A]	Off-white

# Appearance of C=CC(=O)N[C@H]1COC[C@H]1Nc1ncc(/C=C(\F)c2c(Cl)c(OC)cc(OC)c2Cl)cn1 [Crystal Form C] = Off-white
